Biological target: T1, UBL domain of UBL4A (UBL4A_UBL), residues 1-74 (human, UniProt P11441 1-74, RED-NHS (amine reactive) dye, in the MST experiment only)
T1 sequence (looked up): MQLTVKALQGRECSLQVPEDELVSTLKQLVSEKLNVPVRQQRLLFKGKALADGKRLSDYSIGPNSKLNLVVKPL
Test: ITC; 30 °C, 100 mM MES pH 6.0, 200 mM KCl; 20 injections of 2 µL SGTA_NT (dimer, 500 µM) into UBL at 50 µM (monomer); independent binding sites model
Details: both partners purified
readout-name: pKd
One number for each entry, as −log10 of the molar value.

Input SGTA N-terminal dimerisation domain (SGTA_NT), residues 1-69 (domain or fragment, UniProt O43765 1-69, looked up) MDNKKRLAYAIIQFLHDQLRHGGLSSDAQESLEVAIQCLETAFGVTVEDSDLALPQTLPEIFEAAATGK , output reported pKd. 5.52
